// reported activity at 30 min for each item listed
Molecular target: CYP2C9 (Homo sapiens)
Sequence (P11712 whole entry): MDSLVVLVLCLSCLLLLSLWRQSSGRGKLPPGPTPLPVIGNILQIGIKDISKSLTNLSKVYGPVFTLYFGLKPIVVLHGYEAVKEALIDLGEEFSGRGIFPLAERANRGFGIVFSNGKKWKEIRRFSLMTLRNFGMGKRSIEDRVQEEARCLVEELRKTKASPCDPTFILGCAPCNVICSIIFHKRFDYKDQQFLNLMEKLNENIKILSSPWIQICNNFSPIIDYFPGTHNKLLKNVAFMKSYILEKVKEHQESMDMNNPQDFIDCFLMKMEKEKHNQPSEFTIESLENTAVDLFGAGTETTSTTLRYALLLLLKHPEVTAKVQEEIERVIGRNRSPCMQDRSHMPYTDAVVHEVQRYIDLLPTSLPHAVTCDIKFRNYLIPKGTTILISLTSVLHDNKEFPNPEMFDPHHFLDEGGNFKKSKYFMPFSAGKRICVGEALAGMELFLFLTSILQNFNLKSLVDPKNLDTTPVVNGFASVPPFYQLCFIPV
Test: CYP2C9 inhibition, probe/drug metabolism in human liver microsomes
Conditions: human, human liver microsomes, pH 7.4, probe diclofenac 4 μM, Residual activity (%) CYP2C9, HLM 0.5 mg/mL, diclofenac 4 μM, 30 min
Could you give me the number in %? Just the number is fine.

Observe how each entry below is paired with its result.
compound | assayed_target | measured_attribute | quantitative_readout
CC(=CC(=O)CC(C)C(=O)O)C1CC(=O)C2(C)C3=C(C(=O)CC12C)C1(C)CCC(=O)C(C)(CO)C1CC3O (stereo not drawn) | CYP2C9 (Homo sapiens) | activity at 30 min | 91.8
CC(CC(=O)CC(C)C1CC(O)C2(C)C3=C(C(=O)CC12C)C1(C)CCC(=O)C(C)(C)C1CC3=O)C(=O)O (stereo not drawn) | CYP2C9 (Homo sapiens) | activity at 30 min | 73.5
CC(=CC(=O)CC(C)C(=O)O)C1CC(=O)C2(C)C3=C(C(=O)C(O)C12C)C1(C)CCC(O)C(C)(C)C1CC3=O (stereo not drawn) | CYP2C9 (Homo sapiens) | activity at 30 min | 90
CC1(C)CCC2(C(=O)O)CCC3(C)C(=CC(=O)C4C5(C)CCC(O)C(C)(C)C5CCC43C)C2C1 (stereo not drawn) | CYP2C9 (Homo sapiens) | activity at 30 min | 94.8
CC(CC(=O)CC(C)C1CC(O)C2(C)C3=C(C(=O)CC12C)C1(C)CCC(O)C(C)(CO)C1CC3=O)C(=O)O (stereo not drawn) | CYP2C9 (Homo sapiens) | activity at 30 min | 86.6
CC(CC(=O)CC(C)C1CC(O)C2(C)C3=C(C(=O)CC12C)C1(C)CCC(=O)C(C)(C)C1CC3)C(=O)O (stereo not drawn) | CYP2C9 (Homo sapiens) | activity at 30 min | 62.8
CC(=O)OC1C(=O)C2=C(C(=O)CC3C2(C)CCC(O)C3(C)C)C2(C)C(=O)CC(C3(C)CCC(=O)O3)C12C (stereo not drawn) | CYP2C9 (Homo sapiens) | activity at 30 min | 92.5
CC(=O)OC1C(=O)C2=C(C(=O)CC3C(C)(C)C(=O)CCC23C)C2(C)C(=O)CC(C(C)CC(O)C=C(C)C(=O)O)C12C (stereo not drawn) | CYP2C9 (Homo sapiens) | activity at 30 min | 81
CC(=CC(=O)CC(C)C(=O)O)C1CC(=O)C2(C)C3=C(C(=O)CC12C)C1(C)CCC(=O)C(C)(C)C1CC3O (stereo not drawn) | CYP2C9 (Homo sapiens) | activity at 30 min | 99.8
CC(=CC(=O)CC(C)C(=O)O)C1CC(=O)C2(C)C3=C(C(=O)C(O)C12C)C1(C)CCC(=O)C(C)(CO)C1CC3O (stereo not drawn) | CYP2C9 (Homo sapiens) | activity at 30 min | 90.5

Query string: Value wanted: activity at 30 min (CYP2C9 (Homo sapiens)) of entry CC(=O)OC1C(=O)C2=C(C(O)CC3C2(C)CCC(O)C3(C)C)C2(C)C(=O)CC(C(C)=CC(=O)CC(C)C(=O)O)C12C (stereo not drawn)
Result string: 90

Query string: Same thing, different compound: CC(CC(=O)CC(C)C1CC(=O)C2(C)C3=C(C(=O)C(O)C12C)C1(C)CCC(=O)C(C)(CO)C1CC3O)C(=O)O (stereo not drawn)
Result string: 87.3

Query string: Now try CC(CCC(O)C(C)(O)CO)C1CCC2(C)C3=C(C(=O)CC12C)C1(C)CCC(=O)C(C)(C)C1CC3 (stereo not drawn) .
Result string: 32

Query string: Check CC(CC(=O)CC(C)C1CC(=O)C2(C)C3=C(C(=O)CC12C)C1(C)CCC(O)C(C)(CO)C1CC3O)C(=O)O (stereo not drawn) too.
Result string: 87.1

Query string: What do we get for CC(CC(=O)CC(C)C1CC(=O)C2(C)C3=C(C(=O)CC12C)C1(C)CCC(O)C(C)(C)C1CC3=O)C(=O)O (stereo not drawn) ?
Result string: 88.5

Query string: // query: CC(=O)OC1C(=O)C2=C(C(=O)CC3C(C)(C)C(=O)CCC23C)C2(C)C(=O)CC(C(C)CC(=O)CC(C)C(=O)O)C12C (stereo not drawn)
Result string: 77

Query string: And for CC1(C)CCC2(C(=O)O)CCC3(C)C(=C2C1)C=CC1C2(C)CCC(O)C(C)(C)C2CCC13C (stereo not drawn) ?
Result string: 82.9

Query string: Now give it for CC(CC(=O)CC(C)C1CC(=O)C2(C)C3=C(C(=O)CC12C)C1(C)CCC(=O)C(C)(CO)C1CC3O)C(=O)O (stereo not drawn) too.
Result string: 94.8
